# test_name: Components of the Cytosolic LPS Sensing Pathway: Gene Identification via Genome-wide siRNA Screen;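 note: robust z of the log signal after scaling to non-targeting control siRNA wells of the plate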
# assay_setup: RAW264.7 macrophages, IL-1a HTRF, actives lie on both sides, screened at 100 nM (by protocol), cells primed 5 h with Pam3CSK4 first
Screen size: about 53,000 sequences; about 3,700 (7%) were called active. Many of the other results were omitted from the sample, so actives are more common in it than they were.
# label = Fulfilled if z-score < 0.4 else Not fulfilled

INSERT INTO assay_data (sequence_data, class_label) VALUES
  ('GCUGCGUCCUAUGAGUUUATT against Drg2', 'Not fulfilled'),
  ('GCCUUGGUACCAUAAUGCATT against Synm', 'Fulfilled'),
  ('GGAGAAAAGAGGCUUCCAGTT against Lad1', 'Not fulfilled'),
  ('GGAAGUGGAAGUUCUGAAGTT against Tsc22d1', 'Fulfilled'),
  ('GGAAAAAGCCAAGCUCAUCTT against Syt3', 'Fulfilled'),
  ('GGCUUACUUGAAGCAUUUATT against Plcb4', 'Not fulfilled'),
  ('GGAUUUCUCUGCCUGUACUTT against Gdpgp1', 'Fulfilled'),
  ('GGCCCAACAUAUAUCAAAUTT against Adck2', 'Not fulfilled');

###

# test_name: Components of the Cytosolic LPS Sensing Pathway: Gene Identification via Genome-wide siRNA Screen;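 note: robust z of the log signal after scaling to non-targeting control siRNA wells of the plate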
# assay_setup: RAW264.7 macrophages, IL-1a HTRF, actives lie on both sides, screened at 100 nM (by protocol), cells primed 5 h with Pam3CSK4 first
In all, about 53,000 sequences went through this assay and about 3,700 (7%) were called active. The entries come from a sample that favours actives as a whole.
Overview of recorded z-score for various sequences
outcome_measure: z-score

INSERT INTO measurements (sequence_data, outcome_measure, obs_value) VALUES
  ('GGACGAAAAGAAGUGUUUCTT against Lamb2', 'z-score', -0.103),
  ('GGACAUGUCGGAUGGCUUCTT against P4ha1', 'z-score', 0.212),
  ('GCGACCAGGACCGCGUCAATT against Sox3', 'z-score', -1.07);

###

# test_name: Components of the Cytosolic LPS Sensing Pathway: Gene Identification via Genome-wide siRNA Screen;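 note: robust z of the log signal after scaling to non-targeting control siRNA wells of the plate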
# assay_setup: RAW264.7 macrophages, IL-1a HTRF, actives lie on both sides, screened at 100 nM (by protocol), cells primed 5 h with Pam3CSK4 first
The campaign covered roughly 53,000 sequences. About 3,700 (7%) were called active. Shown is part of a subset that was picked to be rich in actives.
Label scheme for z-score: bottom bin = under -0.4, middle bin = from -0.4 up to 0.7, top bin = 0.7 and over

INSERT INTO assay_data (sequence_data, class_label) VALUES
  ('CCCAUUAAGGUAUAAUAUCTT against Olfr855', 'middle bin'),
  ('GGCAUUAAAGACCUGUUAATT against Kpnb1', 'bottom bin'),
  ('CCUUCAUGAGUCCUCUUCATT against Gaa', 'bottom bin'),
  ('GCAACACAAGUCAUGAAGUTT against Gabpb2', 'middle bin'),
  ('GGCUUCAGCUAUUGGGCAATT against Vsig1', 'top bin'),
  ('GCAGAUAAUCUAGCAAAGATT against Agps', 'top bin'),
  ('GGAUUUCGGCUUUUUGAACTT against Bcas1', 'middle bin'),
  ('GGGCAAACUCUAUAAUCAGTT against BC023105', 'middle bin'),
  ('CCGGAGGUUCCAACAAACUTT against Dlx1', 'bottom bin'),
  ('GCAUUCCAUGGUACAGGGUTT against Adamts4', 'bottom bin'),
  ('GCGAGUCUAUGUGUUCCCUTT against Cox4i2', 'middle bin'),
  ('GCCACGAACAUGAUGUACATT against Slco3a1', 'middle bin'),
  ('GCCGGACAACUCUAAUCAGTT against Herpud1', 'top bin'),
  ('GGAGGGAAUAGAGAAUCGGTT against A930024E05Rik', 'top bin'),
  ('GCAGAAUAUUAACCAGUGUTT against Ptp4a2', 'top bin'),
  ('GGUGAUAGUACUGUCAGCCTT against Olfr1225', 'bottom bin'),
  ('GCCUUGGUCCUUAAAUAUATT against Slc7a2', 'bottom bin'),
  ('GAAGCAGGCCUGGGAUCUUTT against Vmn1r41', 'top bin'),
  ('GCAACUUACUUGAUCUGAATT against Ap2b1', 'middle bin'),
  ('GGCUGGAUUAUUUUUUCUUTT against Usp4', 'top bin'),
  ('CGGAUACAGGUUCGGGUAATT against Nemp1', 'top bin'),
  ('GGCUGUUUCCAAAAAGAAGTT against H1f5', 'bottom bin'),
  ('GGUUCAGUCAAGAAUUGCUTT against Clec4e', 'top bin'),
  ('GGAAGACAAUGAUGAUGUUTT against Clns1a', 'bottom bin'),
  ('GGGACUUUGGGCUAAAUAGTT against Tspan1', 'bottom bin'),
  ('GCAUAUCUAUAACAGAGCCTT against Rnase2a', 'bottom bin'),
  ('GGAUCUGUGAGAAUCAUAGTT against Rabgap1l', 'bottom bin'),
  ('GCUUCGAAGCAACAUCCGATT against Rims3', 'middle bin'),
  ('GGGCCAUAAGAUCUGUACUTT against Ccl24', 'middle bin'),
  ('GGAGCUCCAUGACAUGUUUTT against Stx3', 'middle bin'),
  ('GCAGUGUAUAGGUGUACAATT against Krt2', 'top bin'),
  ('GGAGUUUAUGAGGAACUCGTT against Zwint', 'middle bin');
